Test name: Stability of DOTA mono-NHS in water by 1H NMR (rate of change in the ratio Afree/Abound)
Assay type: physicochemical
Condition label: neutral pH, read-out: half-life for hydrolysis
Assay metric: half-life

The recorded half-life for O=C(O)CN1CCN(CC(=O)O)CCN(CC(=O)ON2C(=O)CCC2=O)CCN(CC(=O)O)CC1 is ~30 min

The reported measurements were obtained from patent US6838557B1.
